- Test System: aldose reductase (Bos taurus)
- Construct: partially purified aldose reductose enzyme obtained from calf lens; from tissue; host or cells: calf lens
- Assay Method Text: inhibition of aldose reductase enzyme activity (procedure of S. Hayman et al., modified by K. Sestanj et al.)
- Assay type: biochemical, calf
- Test Settings: 10^-5 M; calf lens enzyme; read-out: Percent inhibition of aldose reductase enzyme activity
Outcome Measure: inhibition at 10 µM (%)
Give just the number in %; leave the unit off.

Data request, read-out inhibition at 10 µM, for COc1ccc2c(c1)C1(CCO2)NC(=O)NC1=O (stereo not shown)
92

Data request, read-out inhibition at 10 µM, for O=C1NC(=O)C2(CCS(=O)(=O)c3ccc(F)cc32)N1 (stereo not shown)
74

Data request, read-out inhibition at 10 µM, for O=C1NC(=O)C2(CC[S+]([O-])c3ccc(F)cc32)N1 (stereo not shown)
80

Data request, read-out inhibition at 10 µM, for COc1ccc2c(c1)C1(CCS2)NC(=O)NC1=O (stereo not shown)
60

Data request, read-out inhibition at 10 µM, for O=C1NC(=O)C2(CCc3cc4c(cc32)OCO4)N1 (stereo not shown)
67

Data request, read-out inhibition at 10 µM, for O=C1NC(=O)C2(CCOc3cc(Cl)c(Cl)cc32)N1 (stereo not shown)
96

Data request, read-out inhibition at 10 µM, for O=C1NC(=O)C2(CCSc3cc(Cl)c(Cl)cc32)N1 (stereo not shown)
84

* * *

Field: Percent inhibition of sorbitol accumulation in the sciatic nerve. Provide a value for each of the compounds that follow.
- Test system: sorbitol accumulation in the sciatic nerve of streptozotocinized (i.e., diabetic) rats
- Assay Method Text: inhibition of sorbitol accumulation in the sciatic nerve of acutely streptozotocinized (diabetic) rats
- Assay type: in vivo, rat
- Test Settings: 10 mg./kg. orally at 4, 8 and 24 h after streptozotocin; measured at 27 h; vs untreated
Give just the number in %; leave the unit off.

Data request, read-out Percent inhibition of sorbitol accumulation in the sciatic nerve, for O=C1NC(=O)C2(CCc3ccccc32)N1 (stereo not drawn)
67

Data request, read-out Percent inhibition of sorbitol accumulation in the sciatic nerve, for COc1cc2c(cc1OC)C1(CC2)NC(=O)NC1=O (stereo not drawn)
49

Data request, read-out Percent inhibition of sorbitol accumulation in the sciatic nerve, for O=C1NC(=O)C2(CCc3ccc(O)cc32)N1 (stereo not drawn)
15

* * *

- Test System: aldose reductase (Bos taurus, UniProt P16116)
- Construct: partially purified aldose reductose enzyme obtained from calf lens; from tissue; host or cells: calf lens
- Assay Method Text: inhibition of aldose reductase enzyme activity (procedure of S. Hayman et al., modified by K. Sestanj et al.)
- Format: biochemical, calf
- Test Settings: 10^-7 M; calf lens enzyme; read-out: Percent inhibition of aldose reductase enzyme activity
Outcome Measure: inhibition at 0.1 µM (%)
Give just the number in %; leave the unit off.

Data request, read-out inhibition at 0.1 µM, for O=C1NC(=O)C2(CCOc3c(Cl)cc(Cl)cc32)N1 (stereo not drawn) [Ex. XXIV]
81

Data request, read-out inhibition at 0.1 µM, for O=C1NC(=O)C2(CCc3ccccc32)N1 (stereo not drawn) [Ex. I]
-11

Data request, read-out inhibition at 0.1 µM, for COc1ccc2c(c1)CCCC21NC(=O)NC1=O (stereo not drawn) [Ex. XVIII]
7

Data request, read-out inhibition at 0.1 µM, for O=C1NC(=O)C2(CCCc3ccccc32)N1 (stereo not drawn) [Prep. C, reference compound]
7

Data request, read-out inhibition at 0.1 µM, for O=C1NC(=O)C2(CCOc3ccccc32)N1 (stereo not drawn) [Ex. XX]
-16

Data request, read-out inhibition at 0.1 µM, for O=C1NC(=O)C2(CCOc3c(Cl)cccc32)N1 (stereo not drawn) [Ex. XXVII]
6

Data request, read-out inhibition at 0.1 µM, for O=C1NC(=O)C2(CCSc3ccc(F)cc32)N1 (stereo not drawn) [Ex. XII]
38

Data request, read-out inhibition at 0.1 µM, for COc1cc2c(cc1OC)C1(CC2)NC(=O)NC1=O (stereo not drawn) [Ex. IV]
9

Data request, read-out inhibition at 0.1 µM, for COc1ccc2c(c1)C1(CCS2)NC(=O)NC1=O (stereo not drawn) [Ex. VIII]
7

Data request, read-out inhibition at 0.1 µM, for O=C1NC(=O)C2(CS(=O)(=O)c3ccccc32)N1 (stereo not drawn) [Ex. XXXIII]
4

Data request, read-out inhibition at 0.1 µM, for COc1ccc2c(c1)C1(CCO2)NC(=O)NC1=O (stereo not drawn) [Ex. XXI]
7

Data request, read-out inhibition at 0.1 µM, for O=C1NC(=O)C2(CCOc3ccc(Cl)cc32)N1 (stereo not drawn) [Ex. XXV]
64

Data request, read-out inhibition at 0.1 µM, for O=C1NC(=O)C2(CCSc3ccc(Cl)cc32)N1 (stereo not drawn) [Ex. IX]
30

Data request, read-out inhibition at 0.1 µM, for O=C1NC(=O)C2(CCCc3ncccc32)N1 (stereo not drawn) [Ex. XV]
-2

Data request, read-out inhibition at 0.1 µM, for O=C1NC(=O)C2(CCS(=O)(=O)c3ccc(F)cc32)N1 (stereo not drawn) [Ex. XXXI]
28

Data request, read-out inhibition at 0.1 µM, for O=C1NC(=O)C2(CCOc3cc(Cl)c(Cl)cc32)N1 (stereo not drawn) [Ex. XXIII]
84

Data request, read-out inhibition at 0.1 µM, for O=C1NC(=O)C2(CCSc3cc(Cl)c(Cl)cc32)N1 (stereo not drawn) [Ex. XI]
69

Data request, read-out inhibition at 0.1 µM, for COc1ccc2c(c1)CCC21NC(=O)NC1=O (stereo not drawn) [Ex. VI]
-10

* * *

Field: inhibition at 0.1 µM. Provide a value for each of the compounds that follow.
- Test System: aldose reductase (Bos taurus, UniProt P16116)
- Construct: partially purified aldose reductose enzyme obtained from calf lens; from tissue; host or cells: calf lens
- Assay Method Text: inhibition of aldose reductase enzyme activity (procedure of S. Hayman et al., modified by K. Sestanj et al.)
- Type: biochemical, calf
- Test Settings: 10^-7 M; calf lens enzyme; read-out: Percent inhibition of aldose reductase enzyme activity
- Text: […]
Give just the number in %; leave the unit off.

Data request, read-out inhibition at 0.1 µM, for COc1cc2c(cc1OC)C1(CCC2)NC(=O)NC1=O (stereo not shown) [Ex. XVII]
16

Data request, read-out inhibition at 0.1 µM, for Cc1cc(C)c2c(c1)C1(CCO2)NC(=O)NC1=O (stereo not shown) [Ex. XXXIV]
17

Data request, read-out inhibition at 0.1 µM, for O=C1NC(=O)C2(CCc3ccc(O)cc32)N1 (stereo not shown) [Ex. XIX]
-30

Data request, read-out inhibition at 0.1 µM, for O=C1NC(=O)C2(CCS(=O)(=O)c3ccccc32)N1 (stereo not shown) [Ex. XXXII]
2

Data request, read-out inhibition at 0.1 µM, for O=C1NC(=O)C2(CCSc3ccccc32)N1 (stereo not shown) [Ex. VII]
-5

Data request, read-out inhibition at 0.1 µM, for COc1ccc2c(c1)C1(CC2)NC(=O)NC1=O (stereo not shown) [Ex. II]
1

Data request, read-out inhibition at 0.1 µM, for O=C1NC(=O)C2(CCOc3ccc(F)cc32)N1 (stereo not shown) [Ex. XXII]
3

* * *

Field: inhibition at 1 µM. Provide a value for each of the molecules that follow.
- Test System: aldose reductase (Bos taurus)
- Construct: partially purified aldose reductose enzyme obtained from calf lens; from tissue; host or cells: calf lens
- Assay Method Text: inhibition of aldose reductase enzyme activity (procedure of S. Hayman et al., modified by K. Sestanj et al.)
- Assay type: biochemical, calf
- Test Settings: 10^-6 M; calf lens enzyme; read-out: Percent inhibition of aldose reductase enzyme activity
Give just the number in %; leave the unit off.

Data request, read-out inhibition at 1 µM, for O=C1NC(=O)C2(CCOc3c(Cl)cc(Cl)cc32)N1 (stereo not shown) [Ex. XXIV]
78

Data request, read-out inhibition at 1 µM, for COc1ccc2c(c1)C1(CCC2)NC(=O)NC1=O (stereo not shown) [Ex. XVI]
23

Data request, read-out inhibition at 1 µM, for O=C1NC(=O)C2(CCCc3ccccc32)N1 (stereo not shown) [Prep. C, reference compound]
13

Data request, read-out inhibition at 1 µM, for COc1cccc2c1CCCC21NC(=O)NC1=O (stereo not shown) [Ex. XXVI]
5

Reference for the values: patent US4117230A
